Listed variants paired with reported ratio to parent
B1: H2-Kb / F5 (parent)
chain 1: GDSVTQTEGLVTLTEGLPVMLNCTYQSTYSPFLFWYVQHLNEAPKLLLKSFTDNKRPEHQGFHATLHKSSSSFHLQKSSAQLSDSALYYCALSPSNMGYKLTFGTGTSLLVDP
chain 2: EAAVTQSPRNKVAVTGGKVTLSCNQTNNHNNMYWYRQDTGHGLRLIHYSYGAGSTEKGDIPDGYKASRPSQENFSLILELATPSQTSVYFCASGDASEQYFGPGTRLTVL
chain 3: not shown
chain 4: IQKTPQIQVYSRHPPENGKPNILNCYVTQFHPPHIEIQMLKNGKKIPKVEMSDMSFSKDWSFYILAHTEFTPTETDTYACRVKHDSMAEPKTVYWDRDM
chain 5: SIINFEKL

variants of: B1; assay: % of reporter cells activated (NFAT-GFP), raw; details: with F5; scale: % of reporter cells activated; note: test concentration or dose not given here
MEASUREMENT_LABEL: ratio to parent

> print(dat)
    sequence.change  assay.result
 1      chain 5 I3F           0.3
 2      chain 5 E6P          0.21
 3      chain 5 I3P         0.427
 4      chain 5 F5E         0.315
 5      chain 5 S1N         0.161
 6      chain 5 K7R          2.89
 7      chain 5 E6F         0.292
 8      chain 5 E6G         0.281
 9      chain 5 I2T          1.03
10      chain 5 K7Q          1.38
11      chain 5 N4Q          0.15
